- Assayed Target: T1, recombinant CD3D&E protein (human CD3-his tag) (human, UniProt P04234 22-105; P07766 23-126, limits assumed)
- T1 construct: Analyte in Biacore; also called CD3D&E-His; CD3d&ε-His
- T1 sequence (P04234 22-105 limits assumed, chain 1 of 2): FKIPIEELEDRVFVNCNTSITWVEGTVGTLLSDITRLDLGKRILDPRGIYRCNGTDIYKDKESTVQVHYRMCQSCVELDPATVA
- T1 sequence (P07766 23-126 limits assumed, chain 2 of 2): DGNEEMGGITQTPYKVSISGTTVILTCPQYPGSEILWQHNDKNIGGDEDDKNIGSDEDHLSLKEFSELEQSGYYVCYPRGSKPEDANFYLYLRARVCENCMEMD
- Test: SPR Biacore, Ab captured on Protein A;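 note: humanized antibodies on a Protein A chip, human CD3-his analyte flowed over in serial dilutions for 3 min, dissociation tracked 120–360 s on a Biacore T200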
Attribute Measured: koff (s⁻¹)
Reply numerically in s⁻¹, unit not repeated.

Task: Give the reported value of koff for this record: Hu192A7B9-16 (antibody, V domains shown, humanized mAb) VH: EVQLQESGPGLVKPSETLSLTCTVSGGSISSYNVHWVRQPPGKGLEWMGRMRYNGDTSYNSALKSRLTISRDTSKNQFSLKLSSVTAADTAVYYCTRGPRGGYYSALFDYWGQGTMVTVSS VL: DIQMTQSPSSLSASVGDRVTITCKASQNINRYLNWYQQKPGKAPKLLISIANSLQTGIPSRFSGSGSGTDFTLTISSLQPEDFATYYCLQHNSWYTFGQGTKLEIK
Output: 0.0143

As a next step, examine the binder that follows.
Task: Give the reported value of koff for this record: 153A6B1 chimeric mAb (antibody, V domains shown, Chimeric mAb of the hybridoma clone; also called 153A6B1C8) VH: QVQLKESGPGLVQPSQTLSLTCTVSGFSLTSYNIHWVRQPPGKGLEWMGRIRYNGDTSYNSALKSRLSISRDTSKNQVFLKMSSLQTDDTGTYYCTRGPYGGSREPLFDYWGQGVMVTVSS VL: DIKMTQSPSFLSAAVGDRVTINCKTSQNINKYLNWFQQKLGAAPKLLIYTTNNLQTGIPSRFSGSGSGTDFTLTISSLQPEDVATYFCLQHGSGYTFGAGTKLELK
Output: 0.000694
